Each entry below carries its reported CC50.
- method-description: CC50 test, median cytotoxic concentration against RORγt-LBD+-Jurkat cells
- Type: cell-based
- recorded-conditions: human

Before answering, review these 3 worked examples.
{"compound": "Cc1nc(Sc2nnnn2-c2ccccc2)c2c3c(sc2n1)CC(C)CC3 (stereo not shown)", "CC50": "> 10 µM"}
{"compound": "O=C(Cc1nc(Sc2nnnn2-c2ccccc2)c2c3c(sc2n1)CCCC3)Nc1nc2ccccc2[nH]1", "CC50": "9.18 µM"}
{"compound": "Cc1nc(Sc2nnnn2-c2ccccc2)c2c3c(sc2n1)CC(C(=O)Nc1cccc(Cl)c1)CC3 (stereo not shown)", "CC50": "< 10 µM"}

Note: attention shifts to another entry.
Please report the recorded CC50 for Cc1nc(Sc2nnnn2-c2ccccc2)c2c3c(sc2n1)CC(C(=O)Nc1ccc(F)cn1)CC3 (stereo not shown) .
< 10 µM

* * *

- target-system: RORγt (Homo sapiens, UniProt P51449)
- Construct: half maximal effective concentration against RORγt-LBD+-Jurkat cells
- Sequence (P51449 269-508 limits assumed, species assumed): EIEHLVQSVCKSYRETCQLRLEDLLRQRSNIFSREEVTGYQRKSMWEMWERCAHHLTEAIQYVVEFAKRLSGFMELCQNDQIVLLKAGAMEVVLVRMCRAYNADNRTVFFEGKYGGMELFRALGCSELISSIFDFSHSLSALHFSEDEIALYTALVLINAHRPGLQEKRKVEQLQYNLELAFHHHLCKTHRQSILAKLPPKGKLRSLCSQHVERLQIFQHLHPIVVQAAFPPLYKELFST
- method-description: EC50 test, inhibition of RORγt transcription activity (luciferase activity reporter system) in RORγt-LBD+-Jurkat cells
- recorded-conditions: half maximal effective concentration against RORγt-LBD+-Jurkat cells
- Text: EC50 and CC50 tests: EC50 (half maximal (50%) effective concentration) is a half maximal effective concentration against RORγt-LBD+-Jurkat cells, and CC50 (median (50%) cytotoxic concentration) is a median cytotoxic concentration against RORγt-LBD+-Jurkat cells.
# EC50 annotations

For the molecule shown here, Cc1nc(Sc2nnnn2-c2ccccc2)c2c3c(sc2n1)CC(C(=O)Nc1cccc(Cl)c1)CC3 (stereo not shown) , give the reported EC50.
> 10 µM

Fill in the blank: the reported EC50 of CCCC1CCc2c(sc3nc(C)nc(Sc4nnnn4-c4ccccc4)c23)C1 (stereo not shown) is ____.
> 10 µM

What value of EC50 has been reported for the following molecule? Cc1nc(Sc2nnnn2-c2ccccc2)c2c3c(sc2n1)CCCC3
2.79 µM

Record request: EC50 value, item Cc1nc(Sc2nnnn2-c2ccccc2)c2c3c(sc2n1)CC(C(=O)Nc1ncc(C)s1)CC3 (stereo not shown)
9.06 µM

* * *

- method-description: CC50 test, median cytotoxic concentration against RORγt-LBD+-Jurkat cells
- Assay type: cell-based
- recorded-conditions: human
observable: CC50

Known CC50 results, listed for orientation:
{"compound": "Cc1nc(Sc2nnnn2-c2ccccc2)c2c3c(sc2n1)CC(C(=O)Nc1nc2ccc(F)cc2s1)CC3 (stereo not shown) [Compound 25]", "assay-result": "< 5 µM"}
{"compound": "CCC1CCc2c(sc3nc(C)nc(Sc4nnnn4-c4ccccc4)c23)C1 (stereo not shown) [Compound 8]", "assay-result": "> 10 µM"}
{"compound": "CCCC1CCc2c(sc3nc(C)nc(Sc4nnnn4-c4ccccc4)c23)C1 (stereo not shown) [Compound 9]", "assay-result": "> 10 µM"}
{"compound": "Cc1nc(Sc2nnnn2-c2ccccc2)c2c3c(sc2n1)CC(C(=O)Nc1nccs1)CC3 (stereo not shown) [Compound 21]", "assay-result": "< 10 µM"}
{"compound": "Cc1nc(Sc2nnnn2-c2ccccc2)c2c3c(sc2n1)CC(C(=O)O)CC3 (stereo not shown) [Compound 14]", "assay-result": "> 10 µM"}
{"compound": "Cc1nc(Sc2nnnn2-c2ccccc2)c2c3c(sc2n1)CC(C(=O)NC1CCOCC1)CC3 (stereo not shown) [Compound 15]", "assay-result": "< 10 µM"}

Okay, next one:
I would be grateful if you could share the reported CC50 for Cc1nc(Sc2nnnn2-c2ccccc2)c2c3c(sc2n1)CC(F)(F)CC3 [Compound 12] .
< 1 µM
